# System: Escherichia coli TOP10;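 note: peptides expressed intracellularly from a pBAD plasmid library in pooled LB shake-flask culture, induced with 0.3% L-arabinose, DNA abundance read by NGS, three biological replicates, DESeq2 with apeglm shrinkage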
# experiment_summary: shrunken log2 fold change of peptide-encoding DNA abundance (4.5 h post-induction vs induction); higher = less antimicrobial activity (less host growth inhibition)
# applied_conditions: time post-induction: 4.5 h; library: site-saturation at positions 5, 18, 19, 20
assay_metric: shrunken log2 fold change
API note: the answer field is a bare number with no unit suffix.

# annotated cases, reported shrunken log2 fold change shown
{"columns": ["sequence_record", "shrunken log2 fold change"],
 "data": [
  ["RRIRMRPPRLPRPRPRPGLTPRP", 1.02],
  ["RRIRWRPPRLPRPRPRPGTRPRP", 0.377]
]}

Qu. Look up shrunken log2 fold change for this sequence: "RRIRWRPPRLPRPRPRPEAFPRP"
Ans. 0.488

Qu. What do you have for "RRIRARPPRLPRPRPRPSFCPRP" ?
Ans. 0.167

Qu. What do you have for "RRIRHRPPRLPRPRPRPWLTPRP" ?
Ans. -0.00695

Qu. What do you have for "RRIRERPPRLPRPRPRPFSGPRP" ?
Ans. -0.55

Qu. What do you have for "RRIRHRPPRLPRPRPRPLSGPRP" ?
Ans. -0.35

Qu. What do you have for "RRIRSRPPRLPRPRPRPWWPPRP" ?
Ans. 0.0626
